- assay-overview: NCI Yeast Anticancer Drug Screen. Data for the mec2-1 strain (AID 157)
- setup-conditions: S. cerevisiae mec2-1 strain, at 50.0 µM, hits give high values
About 79,000 compounds went through this panel and 15% of them were active in at least one assay; those are over-represented in the sample as a whole.
measurement-kind: growth inhibition (%)
# number only, unit % dropped from output

compound="CCOC(=O)C1C(O)=C(P(=O)(C2=C(O)C(C(=O)OCC)C(c3ccc(OC(C)=O)cc3)C(C(=O)O)C2=O)N(CCCl)CCCl)C(=O)C(C(=O)O)C1c1ccc(OC(C)=O)cc1 (configuration not stated)" observed_value=71.8
compound="CCOP(=O)(CSCCC1(C)NC(=O)NC1=O)OCC (configuration not stated)" observed_value=-9.7
compound=CC[C@@H]1C(=O)OC[C@@H]1Cc1cncn1C observed_value=-35.8
compound=[Se]=[Nb]=[Se] observed_value=-6.55
compound=c1ccc(C(c2ccccc2)c2cccnc2)cc1 observed_value=91.2

Form field growth inhibition, entry CC(C(=O)O)C(Br)C(=O)O (configuration not stated) : -8.7

Form field growth inhibition, entry "N=C(N)c1ccc(NN=Nc2cccc3c2Oc2ccccc2O3)cc1" : 78.1

Form field growth inhibition, entry "N#CC(C#N)=NNc1cccc(Cl)c1Cl" : 92.7

Form field growth inhibition, entry "C[C@H]1C(=O)O[C@@H]2CCN3CC=C(COC(=O)[C@](C)(O)[C@@]1(C)O)[C@H]23" : -4.2

Form field growth inhibition, entry CC1(C(=O)O)C2[Se]c3cc[se]c3C2C1(C)C(=O)O (configuration not stated) : 9.8

Form field growth inhibition, entry "[pH]1p2[pH]p3p1p3[pH]2.c1cc[c]([Ge]([c]2ccccc2)[c]2ccccc2)cc1.c1cc[c]([Ge]([c]2ccccc2)[c]2ccccc2)cc1.c1cc[c]([Ge]([c]2ccccc2)[c]2ccccc2)cc1" : 59.3

Form field growth inhibition, entry "CCCCCCCCCCCCCC[As](=O)(O)O" : 17.9

Form field growth inhibition, entry CCOP(=O)(OCC)C(O)c1ccccc1Cl (configuration not stated) : -4.1
